Reference source: the supplement of paper PMC5998384

Record form. Attribute: melting temperature. Fill in for each entry.
System: HeLa Kyoto
Assay: melting temperature (median over replicates), in situ; higher = more thermally stable
Conditions: cell cycle stage: mitosis
All answers are understood in °C, so give the number only.

Data point: MPEINTNHLDKQQVQLLAEMCILIDENDNKIGAETKKNCHLNENIEKGLLHRAFSVFLFNTENKLLLQQRSDAKITFPGCFTNTCCSHPLSNPAELEESDALGVRRAAQRRLKAELGIPLEEVPPEEINYLTRIHYKAQSDGIWGEHEIDYILLVRKNVTLNPDPNEIKSYCYVSKEELKELLKKAASGEIKITPWFKIIAATFLFKWWDNLNHLNQFVDHEKIYRM [IDI1] ; melting temperature = 53.4

Short answer for MAFLRSMWGVLSALGRSGAELCTGCGSRLRSPFSFVYLPRWFSSVLASCPKKPVSSYLRFSKEQLPIFKAQNPDAKTTELIRRIAQRWRELPDSKKKIYQDAYRAEWQVYKEEISRFKEQLTPSQIMSLEKEIMDKHLKRKAMTKKKELTLLGKPKRPRSAYNVYVAERFQEAKGDSPQEKLKTVKENWKNLSDSEKELYIQHAKEDETRYHNEMKSWEEQMIEVGRKDLLRRTIKKQRKYGAEEC [TFAM] : melting temperature was 53

###

Test system: HeLa Kyoto
Assay: melting temperature (median over replicates), in situ; higher = more thermally stable
Conditions: cell cycle stage: mitosis
Readout label: melting temperature (°C)
Express it in °C; write the number only.

Measured melting temperature, MGASARLLRAVIMGAPGSGKGTVSSRITTHFELKHLSSGDLLRDNMLRGTEIGVLAKAFIDQGKLIPDDVMTRLALHELKNLTQYSWLLDGFPRTLPQAEALDRAYQIDTVINLNVPFEVIKQRLTARWIHPASGRVYNIEFNPPKTVGIDDLTGEPLIQREDDKPETVIKRLKAYEDQTKPVLEYYQKKGVLETFSGTETNKIWPYVYAFLQTKVPQRSQKASVTP [AK3] : 54.2

Entry MSVRVARVAWVRGLGASYRRGASSFPVPPPGAQGVAELLRDATGAEEEAPWAATERRMPGQCSVLLFPGQGSQVVGMGRGLLNYPRVRELYAAARRVLGYDLLELSLHGPQETLDRTVHCQPAIFVASLAAVEKLHHLQPSVIENCVAAAGFSVGEFAALVFAGAMEFAEGLYAVKIRAEAMQEASEAVPSGMLSVLGQPQSKFNFACLEAREHCKSLGIENPVCEVSNYLFPDCRVISGHQEALRFLQKNSSKFHFRRTRMLPVSGAFHTRLMEPAVEPLTQALKAVDIKKPLVSVYSNVHAHRYRHPGHIHKLLAQQLVSPVKWEQTMHAIYERKKGRGFPQTFEVGPGRQLGAILKSCNMQAWKSYSAVDVLQTLEHVDLDPQEPPR [MCAT] ; melting temperature = 54.9

Sample MAQEEEDVRDYNLTEEQKAIKAKYPPVNRKYEYLDHTADVQLHAWGDTLEEAFEQCAMAMFGYMTDTGTVEPLQTVEVETQGDDLQSLLFHFLDEWLYKFSADEFFIPREVKVLSIDQRNFKLRSIGWGEEFSLSKHPQGTEVKAITYSAMQVYNEENPEVFVIIDI [ZBTB8OS] ; melting temperature observed: 53.1

Memo: MSVAGLKKQFHKATQKVSEKVGGAEGTKLDDDFKEMERKVDVTSRAVMEIMTKTIEYLQPNPASRAKLSMINTMSKIRGQEKGPGYPQAEALLAEAMLKFGRELGDDCNFGPALGEVGEAMRELSEVKDSLDIEVKQNFIDPLQNLHDKDLREIQHHLKKLEGRRLDFDYKKKRQGKIPDEELRQALEKFDESKEIAESSMFNLLEMDIEQVSQLSALVQAQLEYHKQAVQILQQVTVRLEERIRQASSQPRREYQPKPRMSLEFPTGDSTQPNGGLSHTGTPKPSGVQMDQPCCRALYDFEPENEGELGFKEGDIITLTNQIDENWYEGMLHGHSGFFPINYVEILVALPH [SH3GL2] , reported melting temperature: 49.2

Recorded melting temperature (sequence MEIPPTNYPASRAALVAQNYINYQQGTPHRVFEVQKVKQASMEDIPGRGHKYHLKFAVEEIIQKQVKVNCTAEVLYPSTGQETAPEVNFTFEGETGKNPDEEDNTFYQRLKSMKEPLEAQNIPDNFGNVSPEMTLVLHLAWVACGYIIWQNSTEDTWYKMVKIQTVKQVQRNDDFIELDYTILLHNIASQEIIPWQMQVLWHPQYGTKVKHNSRLPKEVQLE [LXN] ): 52.3

Briefly, melting temperature measured for MLFYSFFKSLVGKDVVVELKNDLSICGTLHSVDQYLNIKLTDISVTDPEKYPHMLSVKNCFIRGSVVRYVQLPADEVDTQLLQDAARKEALQQKQ [LSM2] : 57.5

###

Tested on: HeLa Kyoto
Assay: melting temperature (median over replicates), in situ; higher = more thermally stable
Settings: cell cycle stage: mitosis
Readout label: melting temperature (°C)
Number in °C, nothing else.

Entry MQDPNADTEWNDILRKKGILPPKESLKELEEEAEEEQRILQQSVVKTYEDMTLEELEDHEDEFNEEDERAIEMYRRRRLAEWKATKLKNKFGEVLEISGKDYVQEVTKAGEGLWVILHLYKQGIPLCALINQHLSGLARKFPDVKFIKAISTTCIPNYPDRNLPTIFVYLEGDIKAQFIGPLVFGGMNLTRDELEWKLSESGAIMTDLEENPKKPIEDVLLSSVRRSVLMKRDSDSEGD [PDCL3] : melting temperature on HeLa Kyoto = 54.2

Value (melting temperature, HeLa Kyoto) for record MAEQLSPGKAVDQVCTFLFKKPGRKGAAGRRKRPACDPEPGESGSSSDEGCTVVRPEKKRVTHNPMIQKTRDSGKQKAAYGDLSSEEEEENEPESLGVVYKSTRSAKPVGPEDMGATAVYELDTEKERDAQAIFERSQKIQEELRGKEDDKIYRGINNYQKYMKPKDTSMGNASSGMVRKGPIRAPEHLRATVRWDYQPDICKDYKETGFCGFGDSCKFLHDRSDYKHGWQIERELDEGRYGVYEDENYEVGSDDEEIPFKCFICRQSFQNPVVTKCRHYFCESCALQHFRTTPRCYVCDQQTNGVFNPAKELIAKLEKHRATGEGGASDLPEDPDEDAIPIT [RNF113A] = 63.5

Response field melting temperature (HeLa Kyoto) for item MAELDIGQHCQVEHCRQRDFLPFVCDDCSGIFCLEHRSRESHGCPEVTVINERLKTDQHTSYPCSFKDCAERELVAVICPYCEKNFCLRHRHQSDHECEKLEIPKPRMAATQKLVKDIIDSKTGETASKRWKGAKNSETAAKVALMKLKMHADGDKSLPQTERIYFQVFLPKGSKEKSKPMFFCHRWSIGKAIDFAASLARLKNDNNKFTAKKLRLCHITSGEALPLDHTLETWIAKEDCPLYNGGNIILEYLNDEEQFCKNVESYLE [ZFAND1] : 49.9

MADHSFSDGVPSDSVEAAKNASNTEKLTDQVMQNPRVLAALQERLDNVPHTPSSYIETLPKAVKRRINALKQLQVRCAHIEAKFYEEVHDLERKYAALYQPLFDKRREFITGDVEPTDAESEWHSENEEEEKLAGDMKSKVVVTEKAAATAEEPDPKGIPEFWFTIFRNVDMLSELVQEYDEPILKHLQDIKVKFSDPGQPMSFVLEFHFEPNDYFTNSVLTKTYKMKSEPDKADPFSFEGPEIVDCDGCTIDWKKGKNVTVKTIKKKQKHKGRGTVRTITKQVPNESFFNFFNPLKASGDGESLDEDSEFTLASDFEIGHFFRERIVPRAVLYFTGEAIEDDDNFEEGEEGEEEELEGDEEGEDEDDAEINPKV [NAP1L4] on HeLa Kyoto gives melting temperature = 51.7

Observed melting temperature, HeLa Kyoto, MAAPLELSCWGGGWGLPSVHSESLVVMAYAKFSGAPLKVNVIDNTWRGSRGDVPILTTEDDMVSQPAKILNFLRKQKYNADYELSAKQGADTLAYIALLEEKLLPAVLHTFWVESDNYFTVTKPWFASQIPFPLSLILPGRMSKGALNRILLTRGQPPLYHLREVEAQIYRDAKECLNLLSNRLGTSQFFFGDTPSTLDAYVFGFLAPLYKVRFPKVQLQEHLKQLSNLCRFCDDILSSYFRLSLGGISPAGQETVDANLQKLTQLVNKESNLIEKMDDNLRQSPQLPPRKLPTLKLTPAEEENNSFQRLSP [MTX3] : 53

###

Tested on: HeLa Kyoto
Experiment: thermal stability score vs G1/S (z-score of summed log2 fold changes over temperatures); higher = more thermally stable than in G1/S
Conditions: cell cycle stage: mitosis
Readout label: thermal stability score
# output: bare number, no unit

get_value(item= MAALGEPVRLERDICRAIELLEKLQRSGEVPPQKLQALQRVLQSEFCNAVREVYEHVYETVDISSSPEVRANATAKATVAAFAASEGHSHPRVVELPKTEEGLGFNIMGGKEQNSPIYISRIIPGGIADRHGGLKRGDQLLSVNGVSVEGEHHEKAVELLKAAQGKVKLVVRYTPKVLEEMESRFEKMRSAKRRQQT [LIN7C] , readout=thermal stability score) returns -0.713

thermal stability score in this record for MAARRALHFVFKVGNRFQTARFYRDVLGMKVESCSVARLECSGAISAHCSDYTRITEDSFSKPYDGKWSKTMVGFGPEDDHFVAELTYNYGVGDYKLGNDFMGITLASSQAVSNARKLEWPLTEVAEGVFETEAPGGYKFYLQNRSLPQSDPVLKVTLAVSDLQKSLNYWCNLLGMKIYEKDEEKQRALLGYADNQCKLELQGVKGGVDHAAAFGRIAFSCPQKELPDLEDLMKRENQKILTPLVSLDTPGKATVQVVILADPDGHEICFVGDEAFRELSKMDPEGSKLLDDAMAADKSDEWFAKHNKPKASG [GLOD4] : 0.532

Value of thermal stability score reported for the sequence MGRSRSRSSSRSKHTKSSKHNKKRSRSRSRSRDKERVRKRSKSRESKRNRRRESRSRSRSTNTAVSRRERDRERASSPPDRIDIFGRTVSKRSSLDEKQKREEEEKKAEFERQRKIRQQEIEEKLIEEETARRVEELVAKRVEEELEKRKDEIEREVLRRVEEAKRIMEKQLLEELERQRQAELAAQKAREEEERAKREELERILEENNRKIAEAQAKLAEEQLRIVEEQRKIHEERMKLEQERQRQQKEEQKIILGKGKSRPKLSFSLKTQD [ARGLU1] is -4.86
